Target: TEM-1 β-lactamase (UniProt P62593 24-286)
Sequence (P62593 24-286): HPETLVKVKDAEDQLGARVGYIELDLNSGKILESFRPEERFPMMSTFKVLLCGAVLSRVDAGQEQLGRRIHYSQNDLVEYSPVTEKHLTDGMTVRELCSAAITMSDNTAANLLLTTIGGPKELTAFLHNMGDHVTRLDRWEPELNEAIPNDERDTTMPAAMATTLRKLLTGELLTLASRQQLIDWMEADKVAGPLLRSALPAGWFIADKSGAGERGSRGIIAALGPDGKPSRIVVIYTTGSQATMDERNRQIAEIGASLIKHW
Assay: β-lactamase inhibition assay (nitrocefin hydrolysis, Morrison tight-binding fit); increasing concentrations of BLIP incubated with 1 nM β-lactamase for 1 h at room temperature in 50 mM sodium phosphate pH 7.0; nitrocefin added at its Km, initial velocity at 482 nm; Ki calculated from Ki app
Details: both partners purified
Please respond with satisfied when measured Ki is strictly beneath 60 nM, and with not satisfied in all other cases.

binder: BLIP [change] (natural protein) AGVMTGAKFTQIQFGMTRQQVLDIAGAENCETGGSFGDSIHCRGHAAGDKYAYATFGFTSAAADAKVDSKSQEKLLAPSAPTLTLAKFNQVTVGMTRAQVLATVGQGSCTTWSEYYPAYPSTAGVTLSLSCFDVDGYSSTGFYRGSAHLWFTDGVLQGKRQWDLV
label: not satisfied
//
binder: BLIP [change] (natural protein) AGVMTGAKFTQIQFGMTRQQVLDIAGAENCETGGSFGDSIHCRGHAAGDRYAYATFGFTSAAADAKVDSKSQEKLLAPSAPTLTLAKFNQVTVGMTRAQVLATVGQGSCTTWSEYYPAYPSTAGVTLSLSCFDVDGYSSTGFYRGSAHLWFTDGVLQGKRQWDLV
label: not satisfied
//
binder: BLIP [change] (natural protein) AGVMTGAKFTQIQFGMTRQQVLDIAGAENCETGGSFGDSIHCRGHAAGDWYAYATFGFTSAAADAKVDSKSQEKLLAPSAPTLTLAKFNQVTVGMTRAQVLATVGQGSCTTWSEYYPAYPSTAGVTLSLSCFDVDGYSSTGFYRGSAHLWFTDGVLQGKRQWDLV
label: satisfied
//
binder: BLIP [change] (natural protein) AGVMTGAKFTQIQFGMTRQQVLDIAGAENCETGGSFGDSIHCRGHAAGDFYAYATFGFTSAAADAKVDSKSQEKLLAPSAPTLTLAKFNQVTVGMTRAQVLATVGQGSCTTWSEYYPAYPSTAGVTLSLSCFDVDGYSSTGFYRGSAHLWFTDGVLQGKRQWDLV
label: satisfied
//
binder: BLIP [change] (natural protein) AGVMTGAKFTQIQFGMTRQQVLDIAGAENCETGGSFGDSIHCRGHAAGDQYAYATFGFTSAAADAKVDSKSQEKLLAPSAPTLTLAKFNQVTVGMTRAQVLATVGQGSCTTWSEYYPAYPSTAGVTLSLSCFDVDGYSSTGFYRGSAHLWFTDGVLQGKRQWDLV
label: satisfied
